// data source = the supplement of paper PMC7125110

B1: glmS ribozyme (parent)
chain: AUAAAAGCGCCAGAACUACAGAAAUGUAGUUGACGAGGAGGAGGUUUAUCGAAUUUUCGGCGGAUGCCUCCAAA

- Variants of: B1
- experiment.notes: self-cleavage kobs at 160 uM GlcN6P; higher = faster cleavage; RNA array
- test.conditions: with glucosamine-6-phosphate
Variants at the floor of the assay were thinned out.

- variant.code: "G32U G35A U57C"
  unit.abbrev: "s⁻¹"
  qualifier.symbol: "<"
  self-cleavage kobs at 160 uM GlcN6P: "1e-05"
- variant.code: "C8G G21U C34A A64G"
  unit.abbrev: "s⁻¹"
  qualifier.symbol: "<"
  self-cleavage kobs at 160 uM GlcN6P: "1e-05"
- variant.code: "G43U U69G"
  unit.abbrev: "s⁻¹"
  qualifier.symbol: "<"
  self-cleavage kobs at 160 uM GlcN6P: "1e-05"
- variant.code: "A14G U49A U56A G62A C71U"
  unit.abbrev: "s⁻¹"
  qualifier.symbol: "<"
  self-cleavage kobs at 160 uM GlcN6P: "1e-05"
- variant.code: "G37A U47G"
  unit.abbrev: "s⁻¹"
  qualifier.symbol: "="
  self-cleavage kobs at 160 uM GlcN6P: "9.69e-05"
- variant.code: "C8U A42G"
  unit.abbrev: "s⁻¹"
  qualifier.symbol: "<"
  self-cleavage kobs at 160 uM GlcN6P: "1e-05"
- variant.code: "U57C"
  unit.abbrev: "s⁻¹"
  qualifier.symbol: "="
  self-cleavage kobs at 160 uM GlcN6P: "1.34e-05"
- variant.code: "A12U G43C"
  unit.abbrev: "s⁻¹"
  qualifier.symbol: "<"
  self-cleavage kobs at 160 uM GlcN6P: "1e-05"
- variant.code: "A52G U54G"
  unit.abbrev: "s⁻¹"
  qualifier.symbol: "="
  self-cleavage kobs at 160 uM GlcN6P: "6.71e-05"
- variant.code: "U30G A53G"
  unit.abbrev: "s⁻¹"
  qualifier.symbol: "="
  self-cleavage kobs at 160 uM GlcN6P: 0.00064
- variant.code: "G40C A64U"
  unit.abbrev: "s⁻¹"
  qualifier.symbol: "<"
  self-cleavage kobs at 160 uM GlcN6P: "1e-05"
- variant.code: "A6U G43C U57G C67U"
  unit.abbrev: "s⁻¹"
  qualifier.symbol: "<"
  self-cleavage kobs at 160 uM GlcN6P: "1e-05"
- variant.code: "A48C G66C"
  unit.abbrev: "s⁻¹"
  qualifier.symbol: "<"
  self-cleavage kobs at 160 uM GlcN6P: "1e-05"
- variant.code: "U31G C67A"
  unit.abbrev: "s⁻¹"
  qualifier.symbol: "="
  self-cleavage kobs at 160 uM GlcN6P: 0.000285
- variant.code: "G37U G60C"
  unit.abbrev: "s⁻¹"
  qualifier.symbol: "<"
  self-cleavage kobs at 160 uM GlcN6P: "1e-05"
- variant.code: "A14U G43U U46A"
  unit.abbrev: "s⁻¹"
  qualifier.symbol: "<"
  self-cleavage kobs at 160 uM GlcN6P: "1e-05"
- variant.code: "A52G C67A"
  unit.abbrev: "s⁻¹"
  qualifier.symbol: "="
  self-cleavage kobs at 160 uM GlcN6P: "7.46e-05"
- variant.code: "C16A C71A"
  unit.abbrev: "s⁻¹"
  qualifier.symbol: "="
  self-cleavage kobs at 160 uM GlcN6P: "3.26e-05"
- variant.code: "A33U C50U C61A C68G C70U"
  unit.abbrev: "s⁻¹"
  qualifier.symbol: "="
  self-cleavage kobs at 160 uM GlcN6P: 0.000144
- variant.code: "A39C A42C U46C"
  unit.abbrev: "s⁻¹"
  qualifier.symbol: "<"
  self-cleavage kobs at 160 uM GlcN6P: "1e-05"
- variant.code: "C34G C50G G59A C67G"
  unit.abbrev: "s⁻¹"
  qualifier.symbol: "="
  self-cleavage kobs at 160 uM GlcN6P: 0.000158
- variant.code: "G29C C71U"
  unit.abbrev: "s⁻¹"
  qualifier.symbol: "="
  self-cleavage kobs at 160 uM GlcN6P: 0.000119
